Data origin: the supplement of paper PMC11451515

Test system: NOMO1
Assay: cell viability relative to DMSO control; higher = less cytotoxic
Settings: RPMI 5 mM glucose + 10% dialyzed FBS; 48 h; 0.000781 µM
metric_name: cell viability (%)

1. Cc1c(Cn2c(C)nc3c(C(=O)O)cc(N4CCOCC4)cc32)cccc1C(F)(F)F : 89.2
2. CC\1=C(C(=O)N(\C=C1)C2=CC=C(C=C2)C3=NC=CO3)/C4=CC5=CN=C(N)N=C5C=C4 : 99.1
3. CC1(C)CCC(=C(CN2CCN(CC2)C3=CC=C(C=C3)C(=O)N[S+]([O-])(=O)C4=CC(=C(N[C@H](CCN5CCOCC5)CSC6=CC=CC=C6)C=C4)[S+]([O-])(=O)C(F)(F)F)\C1)/C7=CC=C(Cl)C=C7 : 116
4. C[S+](=O)([O-])N(Cc1ccco1)CC(O)Cn1c2ccccc2c2ccccc21 (centres undefined) : 97.9

---

System: P12-Ichikawa
Test: cell viability relative to DMSO control; higher = less cytotoxic
Details: RPMI 5 mM glucose + 10% FBS; 48 h; 0.00702 µM
metric_name: cell viability

1) CC(C)(C)C(=O)Oc1ccc([S+](=O)([O-])Nc2ccccc2C(=O)NCC(=O)O)cc1 : 111%
2) CCNC(=O)c1cc2c(-c3cc(OCCN4CCCC4)c(Cl)cc3Cl)nc(N)nc2s1 : 106%
3) CC(C)C[C@H](NC(=O)[C@@H](NC(=O)c1cccc(-c2ccccc2)n1)[C@@H](C)O)B(O)O : 123%

---

Test system: SEM cells
Assay: cell viability relative to DMSO control; higher = less cytotoxic
Conditions: RPMI 5 mM glucose + 10% FBS; 48 h; 0.0211 µM
metric_name: cell viability (%)

1) CC(=O)N1CCN(c2ccc(OC[C@H]3CO[C@](Cn4ccnc4)(c4ccc(Cl)cc4Cl)O3)cc2)CC1 : 125
2) COc1cc2c(Nc3ccc(Cl)c(Cl)c3F)ncnc2cc1OC[C@@H]1C[C@@H]2CN(C)C[C@@H]2C1 : 144
3) CO[C@H]1C[C@@H]2CC[C@@H](C)[C@@](O)(O2)C(=O)C(=O)N2CCCC[C@H]2C(=O)O[C@H]([C@H](C)C[C@@H]2CC[C@@H](OC(=O)C(C)(CO)CO)[C@H](OC)C2)CC(=O)[C@H](C)/C=C(\C)[C@@H](O)[C@@H](OC)C(=O)[C@H](C)C[C@H](C)/C=C/C=C/C=C/1C : 61.6

---

Tested on: SEM cells
Test: cell viability relative to DMSO control; higher = less cytotoxic
Conditions: RPMI 5 mM glucose + 10% dialyzed FBS; 48 h; 0.00702 µM
Known cell viability of a selection of compounds
metric_name: cell viability (%)

1) CC(C)C[C@H](NC(=O)[C@@H](NC(=O)c1cccc(-c2ccccc2)n1)[C@@H](C)O)B(O)O : 95.9
2) CCOc1ccc(Nc2nc(-c3c(C)nc4ccccn34)cs2)cc1 : 96.5
3) CN1CCC(CC1)COC2=CN=C(N=C2)C3=CC(=CC=C3)CN4/N=C(\C=C/C4=O)C5=CC(=CC=C5)C#N : 110
4) CC\1=C(C(=O)N(\C=C1)C2=CC=C(C=C2)C3=NC=CO3)/C4=CC5=CN=C(N)N=C5C=C4 : 118
5) CCC[C@H](N[C@@H](C)C(=O)N1[C@H](C(=O)O)C[C@@H]2CCCC[C@@H]21)C(=O)OCC : 108

---

Test system: NOMO1
Assay: cell viability relative to DMSO control; higher = less cytotoxic
Settings: RPMI 5 mM glucose + 10% FBS; 48 h; 5.12 µM
Please assign Criterion not met whenever cell viability is at or above 40%, and Criterion met whenever it is below.

1. CN(C)CCc1c[nH]c2ccc(C[C@H]3COC(=O)N3)cc12 : Criterion not met
2. CC\1=C(C(=O)N(\C=C1)C2=CC=C(C=C2)C3=NC=CO3)/C4=CC5=CN=C(N)N=C5C=C4 : Criterion not met
3. O=C(NC[C@H](O)CN1CCc2ccccc2C1)c1cc(NC2COC2)ncn1 : Criterion not met
4. CC(C)C[C@H](NC(=O)[C@@H](NC(=O)c1cccc(-c2ccccc2)n1)[C@@H](C)O)B(O)O : Criterion met
5. c1cc(CN2CCCNCCNCCCNCC2)ccc1CN1CCCNCCNCCCNCC1 : Criterion not met
6. CCN(CC)C(=S)SSC(=S)N(CC)CC : Criterion met
7. COc1cc(C)c(Sc2cnc(NC(=O)c3ccc(CNC(C)C(C)(C)C)cc3)s2)cc1C(=O)N1CCN(C(C)=O)CC1 (stereo not drawn) : Criterion not met
8. CC1=C(C=CC=C1)N2\C(=N/C3=C(C(=CC=C3)C)C2=O)C[N]4N=CC5=C4N=CN=C5N : Criterion met
9. CCN(CC)CCCCNc1nc2cc(Cl)c(Cl)cc2nc1-c1ccc(-c2cccs2)s1 : Criterion not met
10. NC1=NC=C(C=C1)C2=CC=C3N=CC\4=C(N(C(=O)\C=C4)C5=CC(=CC=C5)C(F)(F)F)C3=C2 : Criterion met
11. COc1cc2c(Nc3ccc(Cl)c(Cl)c3F)ncnc2cc1OC[C@@H]1C[C@@H]2CN(C)C[C@@H]2C1 : Criterion not met
12. O=C(O)c1ccc(-n2nc(-c3ccccc3O)nc2-c2ccccc2O)cc1 : Criterion not met

---

Overview of reported AUC of viability dose-response curve across a group of molecules:
Test system: P12-Ichikawa
Assay: AUC of viability dose-response curve (% viability x log10 dose units); higher = less sensitive
Conditions: RPMI 5 mM glucose + 10% dialyzed FBS; 48 h
metric_name: AUC of viability dose-response curve

1. CCOC(=O)N1CCN(/[N+]([O-])=N/Oc2ccc([N+](=O)[O-])cc2[N+](=O)[O-])CC1 : 398
2. CC(=O)Nc1ccc([C@H](C)C(=O)Nc2ncc(C(C)C)s2)cc1 : 408
3. CCn1c(-c2nonc2N)nc2cncc(CNC3CCNCC3)c21 : 411
4. C=C1/C(=C\C=C2/CCC[C@]3(C)[C@@H]([C@H](C)/C=C/[C@H](C)C(C)C)CC[C@@H]23)C[C@@H](O)C[C@@H]1O : 408
5. CC(=O)C\1=C(/C)C2=CN=C(NC3=CC=C(C=N3)N4CCNCC4)N=C2N(C5CCCC5)C1=O : 392
6. O=C(NC[C@H]1CN(c2ccc(N3CCOCC3=O)cc2)C(=O)O1)c1ccc(Cl)s1 : 395

---

System: NOMO1
Assay: AUC of viability dose-response curve (% viability x log10 dose units); higher = less sensitive
Conditions: RPMI 5 mM glucose + 10% dialyzed FBS; 48 h
Mark Met for AUC of viability dose-response curve under 400, Not met if at or over.

1. COc1cc2c(Nc3ccc(Cl)c(Cl)c3F)ncnc2cc1OC[C@@H]1C[C@@H]2CN(C)C[C@@H]2C1 : Not met
2. CC(C)C[C@H](NC(=O)[C@@H](NC(=O)c1cccc(-c2ccccc2)n1)[C@@H](C)O)B(O)O : Met
3. C[C@H]1[C@H](OC(=O)CCC(=O)O)O[C@@H]2O[C@@]3(C)CC[C@H]4[C@H](C)CC[C@@H]1[C@@]24OO3 : Met
4. O=C1Nc2ccc(Cl)cc2[C@@](C#CC2CC2)(C(F)(F)F)O1 : Not met
5. CCN(CC)CCCCNc1nc2cc(Cl)c(Cl)cc2nc1-c1ccc(-c2cccs2)s1 : Not met

---

Test system: SEM cells
Test: AUC of viability dose-response curve (% viability x log10 dose units); higher = less sensitive
Conditions: HPLM + 10% dialyzed FBS; 48 h
metric_name: AUC of viability dose-response curve

1) Clc1cc(Cl)cc(CNc2ncncc2-c2ccc3c(c2)OCO3)c1 : 441
2) C[C@H]1C[C@H]2[C@@H]3CCC4=CC(=O)C=C[C@]4(C)[C@@]3(F)[C@@H](O)C[C@]2(C)[C@@]1(O)C(=O)CO : 358
3) O=C(NC[C@H]1CN(c2ccc(N3CCOCC3=O)cc2)C(=O)O1)c1ccc(Cl)s1 : 423

---

Tested on: P12-Ichikawa
Assay: cell viability relative to DMSO control; higher = less cytotoxic
Details: HPLM + 10% dialyzed FBS; 48 h; 0.0211 µM
metric_name: cell viability

1. COc1cc(O)c2c(c1)C1OC1C[C@H](O)[C@H](O)C(=O)/C=C\C[C@H](C)OC2=O (stereo not given in full) : 110%
2. Cc1ncc(OC[C@@]2(c3cccc(F)c3)C[C@H]2C(=O)Nc2ccc(F)cn2)c(C)n1 : 104%
3. Oc1ccc(/C=C/c2cc(O)cc(O)c2)cc1 : 114%
4. NC(=O)c1ncn([C@@H]2O[C@H](CO)[C@@H](O)[C@H]2O)n1 : 109%
5. CC(=O)OCC(=O)[C@@]12\N=C(C)/O[C@@H]1C[C@H]3[C@@H]4CCC/5=C/C(=O)/C=C\[C@]5(C)[C@H]4[C@@H](O)C[C@]23C : 113%
6. C[C@@]12O[C@@H](C[C@]1(O)CO)n1c3ccccc3c3c4c(c5c6ccccc6n2c5c31)CNC4=O : 112%
7. c1cc(CN2CCCNCCNCCCNCC2)ccc1CN1CCCNCCNCCCNCC1 : 10.2%
8. CCOC(=O)N1CCN(/[N+]([O-])=N/Oc2ccc([N+](=O)[O-])cc2[N+](=O)[O-])CC1 : 97.1%
9. CN1\C(=C(\O)C2=C(C=CS2)[S+]1([O-])=O)C(=O)NC3=CC=CC=N3 : 116%
10. O=C(O)c1ccc(-n2nc(-c3ccccc3O)nc2-c2ccccc2O)cc1 : 107%
